Data provenance is patent US9914730B2.

# Assayed Target: full-length human PKCι (Homo sapiens)
# Construct: Recombinant, full-length human PKCι expressed in Sf21 insect cells is also commercially available
# Assay Notes: PKCι IC50 IMAP assay, full-length PKCι at 150 μM ATP
# Test Settings: read-out: IC50 in IMAP assay against full length PKCi at 150 μM ATP
Catalogue of IC50 values

                                   compound    result_value
0  N#Cc1ccc(F)c(Nc2cc(-c3nc(N4CCNCC4)c4c(C5CC5)cncc4n3)ccn2)c1  100 to 1000 nM
1  CN1CCP(=O)(c2ccc(Nc3cc(-c4nc(N5CCNCC5)c5c(C6CC6)cncc5n4)ccn3)cc2)CC1        < 100 nM
2  FC(F)(F)C1CN(c2nc(-c3ccnc(NC4CCCC4)c3)nc3cncc(C4CC4)c23)CCN1 (centres unmarked)  100 to 1000 nM
3     Brc1cncc2nc(-c3ccncc3)nc(N3CCNCC3)c12        < 100 nM
4  c1cc(-c2nc(N3CCNCC3)c3c(C4CC4)cncc3n2)cc(Nc2nc3cc(C4CC4)ccn3n2)n1        < 100 nM
5  COc1cncc2nc(-c3ccnc(Nc4ccccc4)c3)nc(N3CCN[C@@H](C(C)C)C3)c12        < 100 nM

Shifting focus to the compound that follows.
Consider the compound `COc1cncc2nc(-c3ccnc4[nH]c(Cc5ccccc5F)cc34)nc(N3CCNCC3)c12` and give its measured IC50. < 100 nM

###

# Assayed Target: full-length human PKCι (Homo sapiens, UniProt P41743)
# Construct: Recombinant, full-length human PKCι expressed in Sf21 insect cells is also commercially available
# Sequence (P41743 1-596): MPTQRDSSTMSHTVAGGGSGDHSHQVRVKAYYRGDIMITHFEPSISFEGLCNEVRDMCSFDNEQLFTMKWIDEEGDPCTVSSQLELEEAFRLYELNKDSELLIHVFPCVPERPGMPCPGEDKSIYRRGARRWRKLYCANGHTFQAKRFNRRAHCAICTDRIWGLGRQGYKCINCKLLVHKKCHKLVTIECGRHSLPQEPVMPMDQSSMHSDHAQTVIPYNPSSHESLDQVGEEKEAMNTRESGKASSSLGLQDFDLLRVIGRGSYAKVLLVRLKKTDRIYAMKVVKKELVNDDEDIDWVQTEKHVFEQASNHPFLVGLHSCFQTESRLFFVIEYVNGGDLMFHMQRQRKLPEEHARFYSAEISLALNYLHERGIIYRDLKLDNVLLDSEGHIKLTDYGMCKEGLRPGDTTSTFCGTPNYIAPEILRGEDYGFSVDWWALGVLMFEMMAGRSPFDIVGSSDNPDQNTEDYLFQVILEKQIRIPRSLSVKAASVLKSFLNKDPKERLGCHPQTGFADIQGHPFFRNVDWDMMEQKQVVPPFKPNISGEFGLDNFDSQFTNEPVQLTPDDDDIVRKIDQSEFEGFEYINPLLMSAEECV
# Assay Notes: PKCι IC50 IMAP assay, full-length PKCι at 150 μM ATP
# Test Settings: read-out: IC50 in IMAP assay against full length PKCi at 150 μM ATP
Measure Name: IC50

Study these solved cases before continuing.
In [3]: df
Out[3]:
                      smiles_representation                            assayed_target  result_value
0  FC[C@H]1CN(c2nc(-c3ccnc(Nc4cccnc4F)c3)nc3cncc(C4CC4)c23)CCN1  full-length human PKCι (Homo sapiens, UniProt P41743)      < 100 nM
1  Fc1ccccc1-n1cc(Nc2cc(-c3nc(N4CCNCC4)c4c(C5CC5)cncc4n3)ccn2)cn1  full-length human PKCι (Homo sapiens, UniProt P41743)      < 100 nM
2  COc1cccc(Nc2cc(-c3nc(N4CCNCC4)c4c(C5CC5)cncc4n3)ccn2)c1  full-length human PKCι (Homo sapiens, UniProt P41743)      < 100 nM

Consider the compound `FC(F)(F)c1cc2c(-c3nc(SC4CCNCC4)c4c(C5CC5)cncc4n3)ccnc2[nH]1` and give its measured IC50. < 100 nM

Try `CC1(C)CN(c2nc(-c3ccnc4[nH]c(C(C)(C)C)cc34)nc3cncc(C4CC4)c23)CCN1` next. < 100 nM

Try `c1cc(-c2nc(N3CCNCC3)c3c(C4CC4)cncc3n2)cc(Nc2ccc3ccnn3c2)n1` next. < 100 nM

Try `N#CC[C@H]1CN(c2nc(N3CCOCC3)nc3cncc(C4CC4)c23)CCN1` next. < 100 nM

Try `FC(F)(F)c1cc2c(-c3nc(N4CCOCC4)c4c(C5CC5)cncc4n3)ccnc2[nH]1` next. 10000 to 40000 nM

Try `c1cc(-c2nc(N3CCCNCC3)c3ccncc3n2)ccn1` next. 1000 to 10000 nM

Try `N#Cc1cccc(CC(=O)Nc2cc(-c3nc(N[C@@H]4CCNC4)c4ccncc4n3)ccn2)c1` next. < 100 nM

###

# Assayed Target: full-length human PKCι (Homo sapiens)
# Construct: Recombinant, full-length human PKCι expressed in Sf21 insect cells is also commercially available; purchased; host or cells: Sf21 insect cells
# Sequence (P41743 1-596): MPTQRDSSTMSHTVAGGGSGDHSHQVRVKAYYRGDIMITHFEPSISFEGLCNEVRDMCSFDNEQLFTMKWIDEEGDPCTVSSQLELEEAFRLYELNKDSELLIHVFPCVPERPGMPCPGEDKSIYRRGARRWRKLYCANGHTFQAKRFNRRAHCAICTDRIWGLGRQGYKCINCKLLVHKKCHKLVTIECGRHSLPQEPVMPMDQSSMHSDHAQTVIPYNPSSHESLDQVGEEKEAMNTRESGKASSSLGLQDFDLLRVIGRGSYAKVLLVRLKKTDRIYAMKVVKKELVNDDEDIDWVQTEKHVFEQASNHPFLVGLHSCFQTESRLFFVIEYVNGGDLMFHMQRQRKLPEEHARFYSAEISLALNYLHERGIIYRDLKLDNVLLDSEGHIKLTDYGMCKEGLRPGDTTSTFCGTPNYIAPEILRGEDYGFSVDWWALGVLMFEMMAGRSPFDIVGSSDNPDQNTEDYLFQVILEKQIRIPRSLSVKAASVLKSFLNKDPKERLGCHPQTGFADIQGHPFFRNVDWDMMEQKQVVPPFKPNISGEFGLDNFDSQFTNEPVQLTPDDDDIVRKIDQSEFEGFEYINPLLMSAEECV
# Assay Notes: PKCι IC50 IMAP assay, full-length PKCι at 150 μM ATP
# Assay type: biochemical
# Test Settings: read-out: IC50 in IMAP assay against full length PKCi at 150 μM ATP
pIC50: −log10 of the molar value.
Catalogue of pIC50 values

                                   compound  result_value
0  Cc1ncccc1Nc1cc(-c2nc(N3CCNCC3)c3c(C4CC4)cncc3n2)ccn1 [Example 544]        > 7.00
1  COc1cccc(-c2nccc3c(NC[C@@H](N)Cc4ccccc4)nc(-c4ccncc4)nc23)c1 [Example 94]  6.00 to 7.00
2  O[C@@H]1CCN(c2nc(-c3ccncc3)nc3cnccc23)C1 [Example 36]  4.40 to 5.00
3  c1ccc(-c2ccc(Nc3cc(-c4nc(N5CCNCC5)c5c(C6CC6)cncc5n4)ccn3)cc2)cc1 [Example 683]  5.00 to 6.00
4  c1ccc(Nc2cc(-c3nc(N4CCNCC4)c4c(C5CC5)cncc4n3)ccn2)nc1 [Example 750]        > 7.00
5  N#Cc1ccnc(Nc2cc(-c3nc(N4CCNCC4)c4c(C5CC5)cncc4n3)ccn2)c1 [Example 265]        > 7.00
6  Fc1ccnc(Nc2cc(-c3nc(N4CCNCC4)c4c(C5CCC5)cncc4n3)ccn2)c1 [Example 785]        > 7.00
7  Clc1cncc2nc(-c3ccncc3)nc(N3CCNCC3)c12 [Example 132]        > 7.00

Consider the compound COc1cncc2nc(-c3ccnc(Nc4c(F)ccc(F)c4F)c3)nc(N3CCN[C@@H](CF)C3)c12 [Example 237] and give its measured pIC50. 5.00 to 6.00

Try Cc1ccc(Cl)c(Nc2cc(-c3nc(N4CCNCC4)c4c(C5CC5)cncc4n3)ccn2)c1F [Example 617] next. > 7.00

Try CCOC(=O)N1CCN(c2nc(-c3ccnc4[nH]c(C(F)(F)F)cc34)nc3cncc(C4CC4)c23)CC1 [Example 1224] next. 4.40 to 5.00

Try Fc1cccc(F)c1Nc1cc(-c2nc(N3CCNCC3)c3c(C4CC4)cnc(F)c3n2)ccn1 [Example 2101] next. > 7.00

###

# Assayed Target: full-length human PKCι (Homo sapiens)
# Construct: Recombinant, full-length human PKCι expressed in Sf21 insect cells is also commercially available
# Assay Notes: PKCι IC50 IMAP assay, full-length PKCι at 150 μM ATP
# Test Settings: read-out: IC50 in IMAP assay against full length PKCi at 150 μM ATP
Catalogue of IC50 values

>>> df
                                   compound  measure_name  result_value
0  N#Cc1ccc(Nc2cc(-c3nc(N[C@@H]4CCNC4)c4ccncc4n3)ccn2)nc1 [Example 341]          IC50      < 0.1 µM
1  Nc1ccc(C(=O)Nc2cc(-c3nc(N[C@@H]4CCNC4)c4ccncc4n3)ccn2)cc1 [Example 305]          IC50   0.1 to 1 µM
2  COc1cncc2nc(-c3ccnc(Nc4cccc(C(F)(F)F)n4)c3)nc(N3CCNCC3)c12 [Example 449]          IC50      < 0.1 µM
3  CC(=O)Nc1cc(-c2nc(N3CCNC(CC(F)(F)F)C3)c3c(C4CC4)cncc3n2)ccn1 (centres unmarked) [Example 626]          IC50      < 0.1 µM
4  COc1cc(Nc2cc(-c3nc(N4CCNCC4)c4c(C5CC5)cncc4n3)ccn2)cc(OC)c1OC [Example 611]          IC50   0.1 to 1 µM

Consider the compound O[C@@H]1Cc2ccccc2[C@@H]1Nc1cc(-c2nc(N3CCNCC3)c3c(C4CC4)cncc3n2)ccn1 [Example 2140] and give its measured IC50. < 0.1 µM

Try COc1cncc2nc(-c3ccncc3)nc(N3CCNC(C(=O)NCCc4ccccc4)C3)c12 (centres unmarked) [Example 158] next. 1 to 10 µM

Try CC(C)(Nc1cc(-c2nc(N3CCNCC3)c3c(C4CC4)cncc3n2)ccn1)C(F)(F)F [Example 598] next. < 0.1 µM

Try Oc1nc(-c2ccnc(Nc3cccc(CN4CCNCC4)c3)c2)nc2cnccc12 [Example 498] next. 10 to 40 µM

Try COc1cncc2nc(-c3ccnc(Nc4ccc(CC(N)=O)cc4)c3)nc(N[C@@H]3CCNC3)c12 [Example 326] next. 0.1 to 1 µM

Try Cc1cc2c(-c3nc(N4CCN[C@@H](C5CC5)C4)c4c(C5CC5)cncc4n3)ccnc2[nH]1 [Example 1216] next. < 0.1 µM
